System: MDA-MB-231 breast
protocol: NCI-60 one-dose screen, 48 h (100 = growth as untreated, 0 = no growth, -100 = all killed)
condition notes: 10 µM unless noted
This is part of a sample that, as a whole, favours compounds with a hit. Of some 83,000 tested, about 20% had one in any assay.
Entries and their growth values follow.
The response must be a number in % with no trailing unit.

Use the examples below as a reference point.
N#C/C(=C\c1ccc(C#N)cc1)C(=O)c1ccccc1    104
CC(C)(CC(=O)O)CC(=O)O    95.5
C[n+]1c(/C=C\C=C\N2CCCCC2)sc2ccccc21    17.7
CC(=O)N=c1ccc2nc3c(cc(N)c4ccccc43)oc-2c1    -9.2
CS(=O)CC(=N\O)/C(CS(C)=O)=N\O (stereo unspecified)    101

Here is the next item to consider.
Please give the measured growth for this compound: Cc1ccc(C(C)C)c(OCC(=O)O)c1
107
